Each recorded value in this set is attributed to paper PMC6001238.

Tested on: E. faecalis VRE 53
ASSAY NAME: MIC, broth microdilution, vancomycin-resistant E. faecalis VRE 53 (VanA)
Format: cell-based, Enterococcus faecalis
CONDITION LABEL: Enterococcus faecalis VRE 53 (vancomycin-resistant); read-out: MIC
REPORTED PROPERTY: MIC (µM)
Form entry: value (µM) — number only.

Past entries and their recorded results:
Looking for the measured MIC of `CCCCCCc1ccc(NC(=O)CNC(=O)[C@H]2NC(=O)[C@H]3NC(=O)[C@H](NC(=O)[C@@H]4NC(=O)[C@H](CC(N)=O)NC(=O)[C@H](NC(=O)[C@@H](CC(C)C)NC)[C@H](O)c5ccc(c(Cl)c5)Oc5cc4cc(c5O[C@@H]4O[C@H](CO)[C@@H](O)[C@H](O)[C@H]4O[C@H]4C[C@](C)(N)[C@H](O)[C@H](C)O4)Oc4ccc(cc4Cl)[C@H]3O)c3ccc(O)c(c3)-c3c(O)cc(O)cc32)cc1` , can you help? 3.13

For `CN[C@H](CC(C)C)C(=O)N[C@H]1C(=O)N[C@@H](CC(N)=O)C(=O)N[C@H]2C(=O)N[C@H]3C(=O)N[C@H](C(=O)N[C@H](C(=O)NCC(=O)Nc4ccc(NS(=O)(=O)c5ccc(Cl)cc5Cl)cc4)c4cc(O)cc(O)c4-c4cc3ccc4O)[C@H](O)c3ccc(c(Cl)c3)Oc3cc2cc(c3O[C@@H]2O[C@H](CO)[C@@H](O)[C@H](O)[C@H]2O[C@H]2C[C@](C)(N)[C@H](O)[C@H](C)O2)Oc2ccc(cc2Cl)[C@H]1O` , what is its reported MIC? 6.25

Shifting focus to the compound that follows.
Record request: MIC value, item `CN[C@H](CC(C)C)C(=O)N[C@H]1C(=O)N[C@@H](CC(N)=O)C(=O)N[C@H]2C(=O)N[C@H]3C(=O)N[C@H](C(=O)N[C@H](C(=O)NCCNC(=O)/C=C/c4cccc(OC)c4)c4cc(O)cc(O)c4-c4cc3ccc4O)[C@H](O)c3ccc(c(Cl)c3)Oc3cc2cc(c3O[C@@H]2O[C@H](CO)[C@@H](O)[C@H](O)[C@H]2O[C@H]2C[C@](C)(N)[C@H](O)[C@H](C)O2)Oc2ccc(cc2Cl)[C@H]1O` 25

---

Each record here notes measured MIC-fold improvement vs. vancomycin.
Test system: MRSA KS1
ASSAY NAME: MIC, broth microdilution, MRSA KS1
Assay type: cell-based, Staphylococcus aureus
CONDITION LABEL: MRSA KS1; ratio of MIC of vancomycin and MIC of analogue
Number only, please.

Guide cases for MIC-fold improvement vs. vancomycin, answers given:
Name the reported MIC-fold improvement vs. vancomycin value associated with the molecule CCc1cccc(C)c1NC(=O)CNC(=O)C1NC(=O)C2NC(=O)C(NC(=O)C3NC(=O)C(CC(N)=O)NC(=O)C(NC(=O)C(CC(C)C)NC)C(O)c4ccc(c(Cl)c4)Oc4cc3cc(c4OC3OC(CO)C(O)C(O)C3OC3CC(C)(N)C(O)C(C)O3)Oc3ccc(cc3Cl)C2O)c2ccc(O)c(c2)-c2c(O)cc(O)cc21 (stereo not drawn) [Vanc-19] 1

Data request, read-out MIC-fold improvement vs. vancomycin, for CNC(CC(C)C)C(=O)NC1C(=O)NC(CC(N)=O)C(=O)NC2C(=O)NC3C(=O)NC(C(=O)NC(C(=O)NCC(=O)Nc4ccc(-c5ccc(C(C)=O)cc5)cc4)c4cc(O)cc(O)c4-c4cc3ccc4O)C(O)c3ccc(c(Cl)c3)Oc3cc2cc(c3OC2OC(CO)C(O)C(O)C2OC2CC(C)(N)C(O)C(C)O2)Oc2ccc(cc2Cl)C1O (stereo not drawn) [Vanc-85] 8

Field request: MIC-fold improvement vs. vancomycin | item: CNC(CC(C)C)C(=O)NC1C(=O)NC(CC(N)=O)C(=O)NC2C(=O)NC3C(=O)NC(C(=O)NC(C(=O)NCCCNC(=O)c4nc5ccccc5[nH]4)c4cc(O)cc(O)c4-c4cc3ccc4O)C(O)c3ccc(c(Cl)c3)Oc3cc2cc(c3OC2OC(CO)C(O)C(O)C2OC2CC(C)(N)C(O)C(C)O2)Oc2ccc(cc2Cl)C1O (stereo not drawn) [Vanc-52] 2

New cases:
State the recorded MIC-fold improvement vs. vancomycin for this entry: CCCCOc1ccc(C(=O)NCCCNC(=O)C2NC(=O)C3NC(=O)C(NC(=O)C4NC(=O)C(CC(N)=O)NC(=O)C(NC(=O)C(CC(C)C)NC)C(O)c5ccc(c(Cl)c5)Oc5cc4cc(c5OC4OC(CO)C(O)C(O)C4OC4CC(C)(N)C(O)C(C)O4)Oc4ccc(cc4Cl)C3O)c3ccc(O)c(c3)-c3c(O)cc(O)cc32)cc1 (stereo not drawn) [Vanc-50] 4

Can you share its MIC-fold improvement vs. vancomycin? I mean this molecule: CCCCCCc1ccc(NC(=O)CNC(=O)[C@H]2NC(=O)[C@H]3NC(=O)[C@H](NC(=O)[C@@H]4NC(=O)[C@H](CC(N)=O)NC(=O)[C@H](NC(=O)[C@@H](CC(C)C)NC)[C@H](O)c5ccc(c(Cl)c5)Oc5cc4cc(c5O[C@@H]4O[C@H](CO)[C@@H](O)[C@H](O)[C@H]4O[C@H]4C[C@](C)(N)[C@H](O)[C@H](C)O4)Oc4ccc(cc4Cl)[C@H]3O)c3ccc(O)c(c3)-c3c(O)cc(O)cc32)cc1 [Vanc-75] 4

Request the reported MIC-fold improvement vs. vancomycin associated with CCCCCc1ccc(NC(=O)CNC(=O)[C@H]2NC(=O)[C@H]3NC(=O)[C@H](NC(=O)[C@@H]4NC(=O)[C@H](CC(N)=O)NC(=O)[C@H](NC(=O)[C@@H](CC(C)C)NC)[C@H](O)c5ccc(c(Cl)c5)Oc5cc4cc(c5O[C@@H]4O[C@H](CO)[C@@H](O)[C@H](O)[C@H]4O[C@H]4C[C@](C)(N)[C@H](O)[C@H](C)O4)Oc4ccc(cc4Cl)[C@H]3O)c3ccc(O)c(c3)-c3c(O)cc(O)cc32)cc1 [Vanc-74] 1
